Value source: PubChem BioAssay (NCI)

- Test system: HOP-92 NSCLC
- Assay name: NCI tumour cell line growth inhibition, 48 h; in the data active = GI50 below about 0.43 µM; inactive = the rest
Give one outcome, nothing more. List: active, inactive

>>> discrete_label("CC[C@H](C)[C@H]1NC(=O)[C@@H](N[C@](C)(O)[C@@H](N)CC(C)C)[C@@H](C)OC(=O)[C@H](Cc2ccc(OC)cc2)N(C)C(=O)[C@@H]2CCCN2C(=O)[C@H](CC(C)C)NC(=O)[C@@H](C)C(=O)[C@H](C(C)C)OC(=O)C[C@@H]1O")
"active"
>>> discrete_label("COc1cc2nc(-c3cnc(N(C)C)nc3)nc(NC3CCN(Cc4ccccc4)CC3)c2cc1OC")
"inactive"

Now for another entry.
Q: Record lookup: outcome of this test for "O=C1NN(c2ccc(C(=O)O)cc2)C(=O)/C1=C\c1ccc([N+](=O)[O-])o1" ?
A: inactive
